Test: Metabolic stability in rat liver microsomes assessed as compound remaining after 10 mins
Type: ADME
Settings: read-out: Stability
measurement_name: remaining at 10 min (%)

{"compound_structure_string": "COc1nc(C)c(Nc2nc(Cl)cn([C@H](COC(=O)Nc3cccnc3)C3CC3)c2=O)cc1C", "measurement_name": "remaining at 10 min", "units_symbol": "%", "recorded_measurement": 35}

P. Cc1cc(Nc2nc(Cl)cn([C@H](COC(=O)Nc3ccccc3)C3CC3)c2=O)c(C)nc1OC(F)F
Q. COc1nc(C)c(Nc2nc(Cl)cn([C@H](COC(=O)Nc3ccccc3)C3CC3)c2=O)cc1C
Exercise: Which gives the smaller remaining at 10 min number: P or Q ? Identify your selection by its label.
Solution: Q

---

Target: UniProt:P34998
Sequence (P34998 whole entry): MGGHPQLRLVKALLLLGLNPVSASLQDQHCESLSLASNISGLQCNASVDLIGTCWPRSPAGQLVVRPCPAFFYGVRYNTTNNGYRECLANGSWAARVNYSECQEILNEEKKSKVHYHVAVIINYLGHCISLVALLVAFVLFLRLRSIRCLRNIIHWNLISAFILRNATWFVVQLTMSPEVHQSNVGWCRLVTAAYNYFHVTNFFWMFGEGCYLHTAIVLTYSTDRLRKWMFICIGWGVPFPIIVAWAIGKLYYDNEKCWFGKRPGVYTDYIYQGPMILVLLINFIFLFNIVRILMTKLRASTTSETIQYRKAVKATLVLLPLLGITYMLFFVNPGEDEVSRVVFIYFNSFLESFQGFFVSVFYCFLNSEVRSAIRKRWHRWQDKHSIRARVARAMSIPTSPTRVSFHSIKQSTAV
Test: Antagonist activity at CRF1 receptor in human Y79 cells assessed as inhibition of CRF-stimulated cAMP production preincubated for 30 mins followed by CRF addition measured after 30 mins by HTRF assay
Type: functional, cell-based
measurement_name: IC50 (nM)
// note: answer is a bare numeric in nM

Exercise: What value of IC50 on UniProt:P34998 does Cc1cc(Nc2nc(Cl)cn([C@H](COC(=O)Nc3ccccc3)C3CC3)c2=O)c(C)nc1OC(F)F have?
Solution: 1.2

---

Biological target: Corticotropin-releasing factor receptor 1 (Rattus norvegicus, UniProt P35353)
Sequence (P35353 whole entry): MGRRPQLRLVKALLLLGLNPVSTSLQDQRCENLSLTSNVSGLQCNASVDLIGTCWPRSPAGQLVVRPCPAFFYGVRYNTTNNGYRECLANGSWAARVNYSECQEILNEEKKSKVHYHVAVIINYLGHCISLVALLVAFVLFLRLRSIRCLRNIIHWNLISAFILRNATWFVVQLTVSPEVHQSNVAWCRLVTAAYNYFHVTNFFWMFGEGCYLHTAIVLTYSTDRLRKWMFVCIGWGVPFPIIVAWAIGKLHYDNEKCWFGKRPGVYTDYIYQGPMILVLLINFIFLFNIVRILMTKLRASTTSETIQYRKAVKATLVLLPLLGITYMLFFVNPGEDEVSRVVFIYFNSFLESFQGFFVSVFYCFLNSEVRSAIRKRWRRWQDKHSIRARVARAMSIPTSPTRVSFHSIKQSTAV
measurement_name: IC50 (nM)

Would you please look over these solved cases?
{"compound_structure_string": "COc1nc(C)c(Nc2nc(Cl)cn([C@H](COc3ccccn3)C3CC3)c2=O)cc1C", "IC50 [nM]": 1.2}
{"compound_structure_string": "COc1nc(C)c(Nc2nc(Cl)cn([C@H](COc3cc(Br)ccn3)C3CC3)c2=O)cc1C", "IC50 [nM]": 1.5}
{"compound_structure_string": "COc1nc(C)c(Nc2nc(Cl)cn([C@H](CO)C3CC3)c2=O)cc1C", "IC50 [nM]": 88}
{"compound_structure_string": "COc1nc(C)c(Nc2nc(Cl)cn([C@H](COc3ccc(C(F)(F)F)cn3)C3CC3)c2=O)cc1C", "IC50 [nM]": 1.6}
{"compound_structure_string": "COc1nc(C)c(Nc2nc(Cl)cn([C@H](COc3cccnc3)C3CC3)c2=O)cc1C", "IC50 [nM]": 6.7}

a. COc1nc(C)c(Nc2nc(Cl)cn([C@H](COC(=O)c3cccnc3)C3CC3)c2=O)cc1C
b. CCCNC(=O)OC[C@H](C1CC1)n1cc(Cl)nc(Nc2cc(C)c(OC)nc2C)c1=O
c. COc1nc(C)c(Nc2nc(Cl)cn([C@H](COC(=O)c3ccccn3)C3CC3)c2=O)cc1C
Exercise: Please produce an ascending ranking of these compounds based on IC50. Your task in answering is to list the labels in the requested order.
Solution: a, b, c
